Where do the numbers come from? From paper PMC9482650.

TEST_SYSTEM: GRIP2_6, Q9C0E4
Sequence (Q9C0E4 648-740): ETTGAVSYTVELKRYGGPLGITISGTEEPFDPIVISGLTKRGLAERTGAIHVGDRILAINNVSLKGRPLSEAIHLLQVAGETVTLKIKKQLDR
ASSAY_OVERVIEW: holdup assay
Set-up: key: below the threshold = too weak to quantify, mostly under pKd 3.1 to 4
RUN_CONDITIONS: plain residues with an end cap or a label only (N-terminal biotin on a linker: ado-ado)

[
  {
    "BINDER": "DSEEELPTRL [GRK6, P43250]",
    "pKd": "below the threshold"
  },
  {
    "BINDER": "PSVYSRSQYV [CLDN8, P56748]",
    "pKd": 3.48
  },
  {
    "BINDER": "VKQYADVEGF [HNRNPK, P61978;P61978-2]",
    "pKd": "below the threshold"
  },
  {
    "BINDER": "NTALVESEDL [PALLS, Q8WX93;Q8WX93-1]",
    "pKd": "below the threshold"
  }
]
